- assay.name: in vivo
- conditions: FVB, mouse, systemic (abdominal vein) plasma, oral, 10 mg/kg
readout: concentration at 30 min (nM)
Answer format: numeric, nM implied, no suffix.

Per the record, CC(=O)O[C@H]1C(=O)[C@@]2(C)[C@H]([C@H](OC(=O)c3ccccc3)[C@]3(O)C[C@H](OC(=O)[C@H](O)[C@@H](NC(=O)c4ccccc4)c4ccccc4)C(C)=C1C3(C)C)[C@]1(OC(C)=O)CO[C@@H]1C[C@@H]2O [paclitaxel] has concentration at 30 min of 245

---

- assay.name: in vivo
- conditions: FVB, mouse, portal vein plasma, po, 20 mg/kg
readout: MRT (h)
Answer format: numeric, h implied, no suffix.

Per the record, CC(=O)O[C@H]1C(=O)[C@@]2(C)[C@H]([C@H](OC(=O)c3ccccc3)[C@]3(O)C[C@H](OC(=O)[C@H](O)[C@@H](NC(=O)c4ccccc4)c4ccccc4)C(C)=C1C3(C)C)[C@]1(OC(C)=O)CO[C@@H]1C[C@@H]2O [paclitaxel] has MRT of 2.16
